Assay target: Serine/threonine-protein kinase ATR (Homo sapiens)
Sequence (Q13535 whole entry): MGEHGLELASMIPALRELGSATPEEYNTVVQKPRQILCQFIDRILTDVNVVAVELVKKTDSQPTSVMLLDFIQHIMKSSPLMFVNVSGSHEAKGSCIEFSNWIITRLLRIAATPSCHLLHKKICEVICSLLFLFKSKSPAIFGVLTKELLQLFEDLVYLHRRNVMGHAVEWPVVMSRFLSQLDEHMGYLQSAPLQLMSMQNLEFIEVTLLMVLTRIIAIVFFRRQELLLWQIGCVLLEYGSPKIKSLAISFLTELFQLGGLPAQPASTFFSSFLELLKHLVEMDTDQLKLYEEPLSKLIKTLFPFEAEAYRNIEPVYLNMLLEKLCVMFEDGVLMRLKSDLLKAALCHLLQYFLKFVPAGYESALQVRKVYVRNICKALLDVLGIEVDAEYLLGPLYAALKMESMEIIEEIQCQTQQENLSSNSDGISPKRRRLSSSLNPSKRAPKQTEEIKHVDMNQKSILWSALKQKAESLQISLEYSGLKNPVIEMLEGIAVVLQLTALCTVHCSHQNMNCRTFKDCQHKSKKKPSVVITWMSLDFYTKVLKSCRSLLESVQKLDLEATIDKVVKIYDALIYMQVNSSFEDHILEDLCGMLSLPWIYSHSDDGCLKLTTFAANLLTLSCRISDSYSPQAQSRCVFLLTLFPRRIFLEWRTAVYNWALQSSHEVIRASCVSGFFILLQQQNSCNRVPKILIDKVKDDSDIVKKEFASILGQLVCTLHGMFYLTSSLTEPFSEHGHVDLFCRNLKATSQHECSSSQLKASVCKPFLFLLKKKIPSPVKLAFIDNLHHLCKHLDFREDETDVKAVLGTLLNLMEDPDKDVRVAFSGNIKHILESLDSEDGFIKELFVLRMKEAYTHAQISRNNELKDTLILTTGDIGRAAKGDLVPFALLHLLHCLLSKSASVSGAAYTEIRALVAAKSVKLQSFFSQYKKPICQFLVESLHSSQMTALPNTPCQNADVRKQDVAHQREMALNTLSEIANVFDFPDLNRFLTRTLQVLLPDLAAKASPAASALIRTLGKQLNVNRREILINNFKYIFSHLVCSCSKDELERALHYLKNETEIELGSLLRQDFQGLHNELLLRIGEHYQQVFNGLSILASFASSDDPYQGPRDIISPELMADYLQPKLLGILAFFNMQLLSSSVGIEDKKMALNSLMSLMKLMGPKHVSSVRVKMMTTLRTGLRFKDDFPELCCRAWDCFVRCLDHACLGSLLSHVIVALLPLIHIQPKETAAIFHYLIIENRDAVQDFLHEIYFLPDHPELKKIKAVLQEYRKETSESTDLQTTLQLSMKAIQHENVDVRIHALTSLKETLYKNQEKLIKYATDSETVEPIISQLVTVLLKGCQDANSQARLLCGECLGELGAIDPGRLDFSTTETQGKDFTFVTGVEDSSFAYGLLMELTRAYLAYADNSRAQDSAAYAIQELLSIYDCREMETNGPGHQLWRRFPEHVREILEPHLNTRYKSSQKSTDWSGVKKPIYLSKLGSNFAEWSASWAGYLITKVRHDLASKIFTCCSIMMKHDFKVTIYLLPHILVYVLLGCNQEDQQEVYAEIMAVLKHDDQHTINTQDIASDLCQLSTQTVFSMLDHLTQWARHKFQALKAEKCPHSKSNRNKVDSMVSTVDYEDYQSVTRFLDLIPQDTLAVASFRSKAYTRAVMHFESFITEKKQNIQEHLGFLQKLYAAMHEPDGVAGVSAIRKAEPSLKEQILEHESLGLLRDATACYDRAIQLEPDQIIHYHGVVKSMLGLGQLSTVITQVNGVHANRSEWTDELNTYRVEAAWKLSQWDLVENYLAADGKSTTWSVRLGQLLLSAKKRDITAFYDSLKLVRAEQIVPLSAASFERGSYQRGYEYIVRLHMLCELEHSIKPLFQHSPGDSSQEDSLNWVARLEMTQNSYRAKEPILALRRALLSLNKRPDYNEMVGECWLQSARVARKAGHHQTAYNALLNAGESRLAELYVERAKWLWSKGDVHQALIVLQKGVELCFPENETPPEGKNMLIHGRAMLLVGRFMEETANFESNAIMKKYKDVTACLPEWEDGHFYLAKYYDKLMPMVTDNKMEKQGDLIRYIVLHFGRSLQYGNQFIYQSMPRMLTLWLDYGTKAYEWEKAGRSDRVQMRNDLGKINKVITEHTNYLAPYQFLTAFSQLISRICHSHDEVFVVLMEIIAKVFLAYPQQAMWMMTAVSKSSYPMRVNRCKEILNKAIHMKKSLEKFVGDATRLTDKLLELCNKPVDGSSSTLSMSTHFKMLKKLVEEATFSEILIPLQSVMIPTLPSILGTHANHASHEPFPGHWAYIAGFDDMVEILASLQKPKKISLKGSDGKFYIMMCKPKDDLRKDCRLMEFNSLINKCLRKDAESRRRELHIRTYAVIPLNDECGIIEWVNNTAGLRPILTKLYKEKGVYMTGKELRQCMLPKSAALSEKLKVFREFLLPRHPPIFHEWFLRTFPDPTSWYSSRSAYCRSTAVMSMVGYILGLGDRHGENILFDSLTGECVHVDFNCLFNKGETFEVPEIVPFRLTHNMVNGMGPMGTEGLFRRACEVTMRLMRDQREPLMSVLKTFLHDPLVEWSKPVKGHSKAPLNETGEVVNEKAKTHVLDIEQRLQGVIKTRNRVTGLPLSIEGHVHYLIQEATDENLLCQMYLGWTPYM
Assay name: Inhibition of full length recombinant ATR after 24 hrs by radiometric phosphate incorporation assay
Reported endpoint: pIC50
Units for pIC50: none; it is -log10 of a concentration expressed in mol/L.

Example entries and their recorded answers appear below.
> print(dat)
                                   compound  reported.endpoint  endpoint.value
1  COc1ccc(-c2cnc(N)c(C(=O)Nc3ccccc3)n2)cc1              pIC50            5.82
2  CS(=O)(=O)c1cccc(-c2cnc(N)c(C(=O)Nc3ccccc3)n2)c1              pIC50            6.47
3  CS(=O)(=O)c1ccc(-c2cnc(N)c(-c3nc4ccccc4s3)n2)cc1              pIC50            7.66
4  COc1cc2c(c(OC)c1OC)-c1c(cc3c(c1OC)OCO3)CC(C)C(C)C2 (stereo unspecified)              pIC50            5.14
5  Nc1ncc(-c2ccc(C(=O)N3CCC3)cc2)nc1C(=O)Nc1ccccc1              pIC50            7.00
6  CS(=O)(=O)c1ccc(-c2cnc(N)c(C(=O)NC3CCCCC3)n2)cc1              pIC50            5.45
7       Nc1ncc(-c2ccccc2O)nc1C(=O)Nc1ccccc1              pIC50            5.62
8  CS(=O)(=O)c1ccc(-c2cnc(N)c(-c3nc4ccccc4[nH]3)n2)cc1              pIC50            7.52

Field: pIC50 (Serine/threonine-protein kinase ATR (Homo sapiens)). Entry: `CC(C)(C)S(=O)(=O)c1ccc(-c2cnc(N)c(C(=O)Nc3ccccc3)n2)cc1` 8.22

Field: pIC50 (Serine/threonine-protein kinase ATR (Homo sapiens)). Entry: `Nc1ncc(-c2cccc(Cl)c2)nc1C(=O)Nc1ccccc1` 5.80

Field: pIC50 (Serine/threonine-protein kinase ATR (Homo sapiens)). Entry: `Nc1ncc(Br)nc1C(=O)Nc1ccccc1` 5.28

====

Assay target: Serine/threonine-protein kinase ATR (Homo sapiens)
Assay name: Inhibition of full length recombinant ATR after 24 hrs by radiometric phosphate incorporation assay
pIC50: −log10 of the molar value.
So basically: pIC50 at 6 or higher? That is MET. Lower than 6? That is NOT MET.

> print(dat)
                            chemical.smiles                              assay.target  class.assignment
1        Nc1ncc(-c2ccccc2)nc1C(=O)Nc1ccccc1  Serine/threonine-protein kinase ATR (Homo sapiens)               MET
2        Nc1ncc(-c2cccnc2)nc1C(=O)Nc1ccccc1  Serine/threonine-protein kinase ATR (Homo sapiens)               MET
3  CN(C)C(=O)c1ccc(-c2cnc(N)c(C(=O)Nc3ccccc3)n2)cc1Cl  Serine/threonine-protein kinase ATR (Homo sapiens)               MET
4        Nc1ncc(C2=CCCCC2)nc1C(=O)Nc1ccccc1  Serine/threonine-protein kinase ATR (Homo sapiens)           NOT MET
5        Nc1ncc(-c2ccncc2)nc1C(=O)Nc1ccccc1  Serine/threonine-protein kinase ATR (Homo sapiens)               MET

Quick check: does `Nc1ncc(C2CCCCC2)nc1C(=O)Nc1ccccc1` have pIC50 greater than or equal to 6? NOT MET

Quick check: does `CNC(=O)c1ccc(-c2cnc(N)c(C(=O)Nc3ccccc3)n2)cc1` have pIC50 greater than or equal to 6? MET

Quick check: does `N#Cc1ccc(-c2cnc(N)c(C(=O)Nc3ccccc3)n2)cc1` have pIC50 greater than or equal to 6? MET

Quick check: does `Cc1ccc(-c2cnc(N)c(C(=O)Nc3ccccc3)n2)cc1` have pIC50 greater than or equal to 6? NOT MET
